Biological target: GalNAc(a1-3)GalNAc
Assay: glycan array binding signal (z-score within array); higher = stronger binding
Settings: glycan notation: IUPAC condensed, linker removed
About 410 targets per protein were measured; listed, in parts, are those with the strongest signals and a random draw of the rest.
quantity name: glycan array binding signal (z-score)

{"binder": "HPAIIITrx (Helix pomatia), Q1KM18 (protein) MLFVTIISLGLLAIVHGQCALKTIAFSAAIDREQTFDANQVVIYDIVITNHGNAYDNSTGLFTAPVDGMYSFQLNLLTIKEKEGWLELVHNGQLKVSVYAKQDSTYDSSSNSVIIKMKEGDRVNVRAHKKSGLFGRDDELYNTFSGHFLSGL", "quantity name": "glycan array binding signal (z-score)", "readout value": 3.35}
{"binder": "Banana lectin (Musa acuminata) (protein) MNGAIKVGAWGGNGGSAFDMGPAYRIISVKIFSGDVVDGVDVTFTYYGKTETRHYGGSGGTPHEIVLQEGEYLVGMAGEVANYHGAVVLGKLGFSTNKKAYGPFGNTGGTPFSLPIAAGKISGFFGRGGKFLDAIGVYLEPLEHHHHHH", "quantity name": "glycan array binding signal (z-score)", "readout value": -0.213}
